Reference source: patent US20150376286A1

MEASURED ON: T1, human CGRP receptor (CRLR + RAMP1) (human, UniProt Q16602 23-461; O60894 27-148)
T1 construct: also called hCGRP R; huCGRP R
ASSAY DETAILS: 125I-CGRP competition binding, HTB-10 cell membranes
pKi: −log10 of the molar value.
MEASUREMENT LABEL: pKi

binder="5F5 (antibody, human IgG2, kappa, V domains shown, also called 05F5; 05F5.1) VH: QVQLVESGGGVVQPGRSLRLSCAASGFTFSSYGMHWVRQAPGKGLEWVAVISYDGSHESYADSVKGRFTISRDISKNTLYLQMNSLRAEDTAVYFCARERKRVTMSTLYYYFYYGMDVWGQGTTVTVSS VL: DIILTQTPLSLSVTPGQPASISCKSSQSLLHSDGKTYLYWYLQKPGQPPQLLIYEVSNRFSGEPDRFSGSGSGTDFTLKISRVEAEDVGTYYCMQSFPLPLTFGGGTKVEIKR" measurement_label=pKi data_value=9.83
